- Protocol summary: Pharmacokinetics of rivaroxaban in rats after avitinib or gefitinib pretreatment
- Format: in vivo, Sprague–Dawley (SD) rats
- Condition parameters: male, Sprague-Dawley, rat, plasma, oral, rivaroxaban ng/ml mean, 吉非替尼 (gefitinib) group, mean of rats 7-12, time 8
Value type: concentration at 8 h (ng/mL)
Kindly answer with a numeric value in ng/mL, unit omitted.

Problem: For the compound shown here, O=C(NC[C@H]1CN(c2ccc(N3CCOCC3=O)cc2)C(=O)O1)c1ccc(Cl)s1 , give the reported concentration at 8 h.
Solution: 3710

----------
- Protocol summary: Pharmacokinetics of rivaroxaban in rats after avitinib or gefitinib pretreatment
- Type: in vivo, Sprague–Dawley (SD) rats
- Condition parameters: male, Sprague-Dawley, rat, plasma, po, 10 mg/kg, rats, rivaroxaban 10 mg/kg oral; control group (CMC-Na only); read-out: MRT(0–∞)
- Procedure: Eighteen male Sprague–Dawley (SD) rats weighing 300 ± 20 g were provided by the Experimental Animal Center of Wenzhou Medical University (Wenzhou, China) and kept under controlled conditions at a temperature of 23 ± 2 °C, relative humidity of 50 ± 10%, and 12 h light–dark cycle. Eighteen male SD rats were randomly assigned to three groups: avitinib, gefitinib, and control, with six rats per group. […] All assays were performed in triplicate, and the results are expressed as mean ± standard deviation. […]
Value type: MRT inf (h)
Kindly answer with a numeric value in h, unit omitted.

Problem: For the compound shown here, O=C(NC[C@H]1CN(c2ccc(N3CCOCC3=O)cc2)C(=O)O1)c1ccc(Cl)s1 , give the reported MRT inf.
Solution: 3.95

----------
- Protocol summary: Pharmacokinetics of rivaroxaban in rats after avitinib or gefitinib pretreatment
- Format: in vivo, Sprague–Dawley (SD) rats
- Condition parameters: male, Sprague-Dawley, rat, plasma, oral, rivaroxaban ng/ml mean, 吉非替尼 (gefitinib) group, mean of rats 7-12, time 0.0833
Value type: concentration at 5 min (ng/mL)
Kindly answer with a numeric value in ng/mL, unit omitted.

Problem: For the molecule shown here, O=C(NC[C@H]1CN(c2ccc(N3CCOCC3=O)cc2)C(=O)O1)c1ccc(Cl)s1 [rivaroxaban, Rivaroxaban] , give the reported concentration at 5 min.
Solution: 626

----------
- Protocol summary: Pharmacokinetics of rivaroxaban in rats after avitinib or gefitinib pretreatment
- Assay type: in vivo, Sprague–Dawley (SD) rats
- Condition parameters: male, Sprague-Dawley, rat, plasma, po, 10 mg/kg, rats, rivaroxaban 10 mg/kg oral; control group (CMC-Na only); read-out: CLz/F (converted)
Value type: CL/F
Please answer using a numeric value trailed by its unit.

Problem: For the compound shown here, O=C(NC[C@H]1CN(c2ccc(N3CCOCC3=O)cc2)C(=O)O1)c1ccc(Cl)s1 , give the reported CL/F.
Solution: 80.8 mL/min/kg

----------
- Protocol summary: Pharmacokinetics of rivaroxaban in rats after avitinib or gefitinib pretreatment
- Type: in vivo, Sprague–Dawley (SD) rats
- Condition parameters: male, Sprague-Dawley, rat, plasma, oral, rivaroxaban ng/ml, 吉非替尼 (gefitinib) group, individual rats 7-12, time 0.5
- Method: Eighteen male Sprague–Dawley (SD) rats weighing 300 ± 20 g were provided by the Experimental Animal Center of Wenzhou Medical University (Wenzhou, China) and kept under controlled conditions at a temperature of 23 ± 2 °C, relative humidity of 50 ± 10%, and 12 h light–dark cycle. Eighteen male SD rats were randomly assigned to three groups: avitinib, gefitinib, and control, with six rats per group. […] All assays were performed in triplicate, and the results are expressed as mean ± standard deviation. […]
Value type: concentration at 0.5 h (ng/mL)
Kindly answer with a numeric value in ng/mL, unit omitted.

Problem: For the compound shown here, O=C(NC[C@H]1CN(c2ccc(N3CCOCC3=O)cc2)C(=O)O1)c1ccc(Cl)s1 , give the reported concentration at 0.5 h.
Solution: 3820

----------
- Protocol summary: Pharmacokinetics of rivaroxaban in rats after avitinib or gefitinib pretreatment
- Type: in vivo, Sprague–Dawley (SD) rats
- Condition parameters: male, Sprague-Dawley, rat, plasma, po, 10 mg/kg, rats, rivaroxaban 10 mg/kg oral; gefitinib group (25 mg/kg pretreatment)
Value type: AUC(0-inf)

Problem: For the compound shown here, O=C(NC[C@H]1CN(c2ccc(N3CCOCC3=O)cc2)C(=O)O1)c1ccc(Cl)s1 , give the reported AUC(0-inf).
Solution: 76000 ng·h/mL

----------
- Protocol summary: Pharmacokinetics of rivaroxaban in rats after avitinib or gefitinib pretreatment
- Format: in vivo, Sprague–Dawley (SD) rats
- Condition parameters: male, Sprague-Dawley, rat, plasma, po, 10 mg/kg, gefitinib group, Mean; read-out: CLz/F (converted)
Value type: CL/F (mL/min/kg)
Kindly answer with a numeric value in mL/min/kg, unit omitted.

Problem: For the molecule shown here, O=C(NC[C@H]1CN(c2ccc(N3CCOCC3=O)cc2)C(=O)O1)c1ccc(Cl)s1 [rivaroxaban, Rivaroxaban] , give the reported CL/F.
Solution: 2.32

----------
- Protocol summary: Pharmacokinetics of rivaroxaban in rats after avitinib or gefitinib pretreatment
- Format: in vivo, Sprague–Dawley (SD) rats
- Condition parameters: male, Sprague-Dawley, rat, plasma, oral, 10 mg/kg, rivaroxaban ng/ml mean, control (rivaroxaban alone) group, mean of rats 13-18, time 4
Value type: concentration at 4 h (ng/mL)
Kindly answer with a numeric value in ng/mL, unit omitted.

Problem: For the compound shown here, O=C(NC[C@H]1CN(c2ccc(N3CCOCC3=O)cc2)C(=O)O1)c1ccc(Cl)s1 , give the reported concentration at 4 h.
Solution: 238

----------
- Protocol summary: Pharmacokinetics of rivaroxaban in rats after avitinib or gefitinib pretreatment
- Type: in vivo, Sprague–Dawley (SD) rats
- Condition parameters: male, Sprague-Dawley, rat, plasma, oral, 10 mg/kg, rivaroxaban ng/ml mean, control (rivaroxaban alone) group, mean of rats 13-18, time 0.0833
Value type: concentration at 5 min (ng/mL)
Kindly answer with a numeric value in ng/mL, unit omitted.

Problem: For the compound shown here, O=C(NC[C@H]1CN(c2ccc(N3CCOCC3=O)cc2)C(=O)O1)c1ccc(Cl)s1 , give the reported concentration at 5 min.
Solution: 158

----------
- Protocol summary: Pharmacokinetics of rivaroxaban in rats after avitinib or gefitinib pretreatment
- Format: in vivo, Sprague–Dawley (SD) rats
- Condition parameters: male, Sprague-Dawley, rat, plasma, oral, rivaroxaban ng/ml mean, 艾维替尼 (avitinib) group, mean of rats 1-6, time 0.5
Value type: concentration at 0.5 h (ng/mL)
Kindly answer with a numeric value in ng/mL, unit omitted.

Problem: For the molecule shown here, O=C(NC[C@H]1CN(c2ccc(N3CCOCC3=O)cc2)C(=O)O1)c1ccc(Cl)s1 , give the reported concentration at 0.5 h.
Solution: 1090

----------
- Protocol summary: Pharmacokinetics of rivaroxaban in rats after avitinib or gefitinib pretreatment
- Format: in vivo, Sprague–Dawley (SD) rats
- Condition parameters: male, Sprague-Dawley, rat, plasma, po, 10 mg/kg, rats, rivaroxaban 10 mg/kg oral; avitinib group (30 mg/kg pretreatment); read-out: CLz/F (converted)
Value type: CL/F

Problem: For the molecule shown here, O=C(NC[C@H]1CN(c2ccc(N3CCOCC3=O)cc2)C(=O)O1)c1ccc(Cl)s1 , give the reported CL/F.
Solution: 19.7 mL/min/kg

----------
- Protocol summary: Pharmacokinetics of rivaroxaban in rats after avitinib or gefitinib pretreatment
- Format: in vivo, Sprague–Dawley (SD) rats
- Condition parameters: male, Sprague-Dawley, rat, plasma, oral, plasma concentration of rivaroxaban, 8 h; gefitinib group, single rats No1-No6
Value type: concentration at 8 h (ng/mL)
Kindly answer with a numeric value in ng/mL, unit omitted.

Problem: For the molecule shown here, O=C(NC[C@H]1CN(c2ccc(N3CCOCC3=O)cc2)C(=O)O1)c1ccc(Cl)s1 , give the reported concentration at 8 h.
Solution: 4960

----------
- Protocol summary: Pharmacokinetics of rivaroxaban in rats after avitinib or gefitinib pretreatment
- Format: in vivo, Sprague–Dawley (SD) rats
- Condition parameters: male, Sprague-Dawley, rat, plasma, po, 10 mg/kg, rats, rivaroxaban 10 mg/kg oral; gefitinib group (25 mg/kg pretreatment); read-out: AUC(0–t)
Value type: AUC(0-t) (ng·h/mL)
Kindly answer with a numeric value in ng·h/mL, unit omitted.

Problem: For the compound shown here, O=C(NC[C@H]1CN(c2ccc(N3CCOCC3=O)cc2)C(=O)O1)c1ccc(Cl)s1 [rivaroxaban, Rivaroxaban] , give the reported AUC(0-t).
Solution: 58000

----------
- Protocol summary: Pharmacokinetics of rivaroxaban in rats after avitinib or gefitinib pretreatment
- Type: in vivo, Sprague–Dawley (SD) rats
- Condition parameters: male, Sprague-Dawley, rat, plasma, po, 10 mg/kg, rats, rivaroxaban 10 mg/kg oral; avitinib group (30 mg/kg pretreatment)
Value type: Tmax (h)
Kindly answer with a numeric value in h, unit omitted.

Problem: For the molecule shown here, O=C(NC[C@H]1CN(c2ccc(N3CCOCC3=O)cc2)C(=O)O1)c1ccc(Cl)s1 , give the reported Tmax.
Solution: 1.33

----------
- Protocol summary: Pharmacokinetics of rivaroxaban in rats after avitinib or gefitinib pretreatment
- Assay type: in vivo, Sprague–Dawley (SD) rats
- Condition parameters: male, Sprague-Dawley, rat, plasma, oral, plasma concentration of rivaroxaban, 12 h; gefitinib group, Mean
Value type: concentration at 12 h
Please answer using a numeric value trailed by its unit.

Problem: For the compound shown here, O=C(NC[C@H]1CN(c2ccc(N3CCOCC3=O)cc2)C(=O)O1)c1ccc(Cl)s1 [rivaroxaban, Rivaroxaban] , give the reported concentration at 12 h.
Solution: 1640 ng/mL
